PROCEDURE DETAILS: protein stability index of a GFP-peptide fusion (GPS, HEK-293T) (PSI 1-6); higher = more stable;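 also: 24-mer peptide tiles fused after GFP, lentivirally expressed, FACS-sorted into six equal bins by GFP/DsRed ratio, decoded by Illumina sequencing, PSI is the read-weighted mean bin number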
CONDITIONS: treatment: DMSO; c terminus: a fixed tail appended
protein stability index below 3 gives f; protein stability index at or above it gives t.

{"SEQUENCE": "NVEAQLSEIRCDLERQNQEYQVLL [KRT36]", "CLASSIFICATION": "t"}
{"SEQUENCE": "LRHKDEEEEDDDDIHITARIESDL [DRICH1]", "CLASSIFICATION": "t"}
{"SEQUENCE": "SNCCFTFSGHFLCTSSWDKNLKIW [WDR88]", "CLASSIFICATION": "f"}
{"SEQUENCE": "SGLEKEVQRLTSRAARDYKIQNHG [FCHSD1]", "CLASSIFICATION": "t"}
{"SEQUENCE": "GPTGVTMTSNPITWGQIKKTTQEA [CDK11A]", "CLASSIFICATION": "t"}
{"SEQUENCE": "SNDGARRQFEFYLEEMILPLMVAS [BTBD10]", "CLASSIFICATION": "f"}
{"SEQUENCE": "IEDSTGLNRPGPAPLSSRKHVLYV [TCF25]", "CLASSIFICATION": "f"}
{"SEQUENCE": "NDYICPATNQCTIDKNRRKSCQAC [ESR2]", "CLASSIFICATION": "t"}
{"SEQUENCE": "LKQAKELDRERAAANEQLTRAILR [CHCHD3]", "CLASSIFICATION": "t"}
{"SEQUENCE": "PSELRDLVTQQLPHLMPSNCGLEE [S100A14]", "CLASSIFICATION": "f"}
{"SEQUENCE": "ELERQRRLLGSVQQDLERSLQDAS [PBXIP1]", "CLASSIFICATION": "t"}
{"SEQUENCE": "SPWDQEERPAQRDCSFPGLPRHQD [TRAF3IP2]", "CLASSIFICATION": "t"}
{"SEQUENCE": "VAVLEQEIKDKDQLVLRTKEAFDT [SASS6]", "CLASSIFICATION": "t"}
{"SEQUENCE": "VALGHAYHPEEFVCSQCGKVLEEG [PDLIM7]", "CLASSIFICATION": "t"}
{"SEQUENCE": "EWDAMGGKVQDIKAREKDGKGRTA [FSD1]", "CLASSIFICATION": "t"}
{"SEQUENCE": "DGKLFPSDGFRDCKKGDPKHGKRK [ELF3]", "CLASSIFICATION": "t"}
{"SEQUENCE": "CTQLGSLSALKHAVLGLYLLVFLI [SCARA5]", "CLASSIFICATION": "f"}
{"SEQUENCE": "RMDFAAKLMKNIRFPLMTPQELIN [KLHL13]", "CLASSIFICATION": "f"}
{"SEQUENCE": "EAPEAELSQAPAEGPDLVPAALGS [HES6]", "CLASSIFICATION": "t"}
{"SEQUENCE": "QAGDYSMRVDLRAGDEAVFAQYDS [TNXB]", "CLASSIFICATION": "t"}
{"SEQUENCE": "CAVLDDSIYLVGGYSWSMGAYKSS [KLHL14]", "CLASSIFICATION": "f"}
{"SEQUENCE": "LEVDHIRTIYHMFIALLILFILST [SOAT1]", "CLASSIFICATION": "f"}
{"SEQUENCE": "ALKHYVESASSQSGCLRISIQKLS [NECAB1]", "CLASSIFICATION": "f"}
{"SEQUENCE": "ITHTREEQPHGRSRRREQSSSRNS [ZNF8]", "CLASSIFICATION": "t"}
{"SEQUENCE": "QLGDLHTCLMMDMKACQEDDVRLL [INTS3]", "CLASSIFICATION": "t"}
